Molecular target: Thioredoxin reductase (Homo sapiens, UniProt Q16881+Q9NNW7+Q86VQ6)
Assay: Inhibition of thioredoxin reductase
Type: protein assay
parameter: IC50

- CN(C)c1ccc([Te]CC2O[C@@H]3O[C@@H]4C(CO)O[C@H](O[C@@H]5C(CO)O[C@H](O[C@@H]6C(CO)O[C@@H](O[C@@H]7C(CO)O[C@H](O[C@@H]8C(CO)O[C@H](O[C@@H]9C(CO)O[C@H](O[C@H]2C(O)C3O)C(O)C9O)C(O)C8O)C(O)C7O)C(O)C6O)C(O)C5O)C(O)C4O)cc1 (some centres not stated): 0.26 µM

Could you now look at the following molecule, please?
What does the record list as IC50 for OCC1O[C@@H]2O[C@@H]3C(C[Se]c4ccccc4)O[C@H](O[C@@H]4C(CO)O[C@H](O[C@@H]5C(CO)O[C@H](O[C@@H]6C(CO)O[C@@H](O[C@@H]7C(CO)O[C@H](O[C@@H]8C(CO)O[C@H](O[C@H]1C(O)C2O)C(O)C8O)C(O)C7O)C(O)C6O)C(O)C5O)C(O)C4O)C(O)C3O (some centres not stated) ?
17.8 µM

* * *

Target: Thioredoxin reductase (Homo sapiens, UniProt Q16881+Q9NNW7+Q86VQ6)
Assay: Inhibition of thioredoxin reductase in the presence of thioredoxinand insulin
Format: protein assay
Hi! Could you tag entries with IC50 below 4 µM as t, and those at or above as f? Much appreciated.

Would you please look over these solved cases?
- OCC1O[C@@H]2O[C@@H]3C(C[Se]c4ccccc4)O[C@H](O[C@@H]4C(CO)O[C@H](O[C@@H]5C(CO)O[C@H](O[C@@H]6C(CO)O[C@@H](O[C@@H]7C(CO)O[C@H](O[C@@H]8C(CO)O[C@H](O[C@H]1C(O)C2O)C(O)C8O)C(O)C7O)C(O)C6O)C(O)C5O)C(O)C4O)C(O)C3O (stereo partly specified): f
- COc1ccc([Te]CC2O[C@@H]3O[C@@H]4C(CO)O[C@H](O[C@@H]5C(CO)O[C@H](O[C@@H]6C(CO)O[C@@H](O[C@@H]7C(CO)O[C@H](O[C@@H]8C(CO)O[C@H](O[C@@H]9C(CO)O[C@H](O[C@H]2C(O)C3O)C(O)C9O)C(O)C8O)C(O)C7O)C(O)C6O)C(O)C5O)C(O)C4O)cc1 (stereo partly specified): f
- CN(C)c1ccc([Te]CC2O[C@@H]3O[C@@H]4C(CO)O[C@H](O[C@@H]5C(CO)O[C@H](O[C@@H]6C(CO)O[C@@H](O[C@@H]7C(CO)O[C@H](O[C@@H]8C(CO)O[C@H](O[C@@H]9C(CO)O[C@H](O[C@H]2C(O)C3O)C(O)C9O)C(O)C8O)C(O)C7O)C(O)C6O)C(O)C5O)C(O)C4O)cc1 (stereo partly specified): t
- CCCC[Te]CC1O[C@@H]2O[C@@H]3C(CO)O[C@H](O[C@@H]4C(CO)O[C@H](O[C@@H]5C(CO)O[C@@H](O[C@@H]6C(CO)O[C@H](O[C@@H]7C(CO)O[C@H](O[C@@H]8C(CO)O[C@H](O[C@H]1C(O)C2O)C(O)C8O)C(O)C7O)C(O)C6O)C(O)C5O)C(O)C4O)C(O)C3O (stereo partly specified): t

Okay, now this compound:
Hi there! Is IC50 for OCC1O[C@@H]2O[C@@H]3C(C[Te]c4ccccc4)O[C@H](O[C@@H]4C(CO)O[C@H](O[C@@H]5C(CO)O[C@H](O[C@@H]6C(CO)O[C@@H](O[C@@H]7C(CO)O[C@H](O[C@@H]8C(CO)O[C@H](O[C@H]1C(O)C2O)C(O)C8O)C(O)C7O)C(O)C6O)C(O)C5O)C(O)C4O)C(O)C3O (stereo partly specified) below 4 µM, do you know?
f
